molecular target: Mu-type opioid receptor (Homo sapiens); conditions: HEK293, at 100 µM
Sequence (P35372 whole entry): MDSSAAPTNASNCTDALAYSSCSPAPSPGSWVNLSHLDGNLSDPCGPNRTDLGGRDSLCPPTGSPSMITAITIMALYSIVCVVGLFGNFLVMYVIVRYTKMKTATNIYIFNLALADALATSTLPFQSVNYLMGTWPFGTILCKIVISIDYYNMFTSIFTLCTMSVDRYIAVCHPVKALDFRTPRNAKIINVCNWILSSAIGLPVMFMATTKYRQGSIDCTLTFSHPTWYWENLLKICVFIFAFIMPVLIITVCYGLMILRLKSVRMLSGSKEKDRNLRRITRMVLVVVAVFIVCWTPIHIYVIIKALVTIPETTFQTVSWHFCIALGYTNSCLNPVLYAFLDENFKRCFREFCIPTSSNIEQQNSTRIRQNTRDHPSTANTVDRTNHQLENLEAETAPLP
Activity calls are given as the source filed them. The rule behind the calls is not given here. Residues, ends and D or L forms follow the SMILES beside them.
Measured attribute: inhibition

Some solved cases for reference:
>>> reading("Cc1cc(O)cc(C)c1C[C@H](N)C(=O)N1CCC[C@H]1C(=O)N[C@@H](Cc1ccccc1)C(=O)N[C@@H](Cc1ccc2ccccc2c1)C(N)=O (HELM PEPTIDE1{[Cc1cc(O)cc(C)c1C[C@H](N)C(=O)[*:2]].P.F.[O=C([C@H](Cc1ccc2ccccc2c1)N[*:1])[*:2]].[am]}$$$$V2.0)")
"Active"
>>> reading("Cc1cc(O)cc(C)c1C[C@H](NC(=O)[C@H](Cc1ccccc1)NC(=O)[C@@H]1CCCN1C(=O)[C@@H](N)Cc1c(C)cc(O)cc1C)C(N)=O (HELM PEPTIDE1{[Cc1cc(O)cc(C)c1C[C@H](N)C(=O)[*:2]].P.F.[Cc1cc(O)cc(C)c1C[C@H](N[*:1])C(=O)[*:2]].[am]}$$$$V2.0)")
"inactive"
>>> reading("Cc1cc(O)cc(C)c1C[C@H](N)C(=O)N1CCC[C@H]1C(=O)N[C@@H](Cc1c[nH]c2ccccc12)C(N)=O (HELM PEPTIDE1{[Cc1cc(O)cc(C)c1C[C@H](N)C(=O)[*:2]].P.W.[am]}$$$$V2.0)")
"Active"
>>> reading("Cc1cccc(C)c1C[C@H](NC(=O)[C@H](Cc1ccccc1)NC(=O)[C@@H]1CCCN1C(=O)[C@@H](N)Cc1c(C)cc(O)cc1C)C(N)=O")
"inactive"

(Q) What inhibition value was documented for this compound, Cc1cc(O)cc(C)c1C[C@H](N)C(=O)N1CCC[C@H]1C(=O)N[C@@H](Cc1ccccc1)C(=O)N[C@@H](Cc1c[nH]c2ccccc12)C(N)=O (HELM PEPTIDE1{[Cc1cc(O)cc(C)c1C[C@H](N)C(=O)[*:2]].P.F.W.[am]}$$$$V2.0) ?
(A) inactive

(Q) Further, for Cc1cc(C)c(C[C@H](NC(=O)[C@H](Cc2ccccc2)NC(=O)[C@@H]2CCCN2C(=O)[C@@H](N)Cc2c(C)cc(O)cc2C)C(N)=O)c(C)c1 ?
(A) inactive
